Record form. Attribute: speed of sound. Fill in for each entry.
details: 308.15 K; 101.33 kPa; Liquid; Sing-around technique in a fixed-path interferometer
One number for each entry, in m/s.

Known results for compounds:
What measured speed of sound goes with CCCCCCCO ?
1292

State the recorded speed of sound for this entry: C1CCCCC1
1212

Any idea what its speed of sound is? The compound is CCCCCO
1240

Hey, can you go through the list below and give me speed of sound for every item?
1. CCCCO
2. c1ccccc1
3. C=C(C)C(=O)OC [methyl methacrylate]
4. CCc1ccccc1
5. Cc1ccccc1

[1212, 1260, 1152, 1276, 1262]

# query: speed of sound of entry Cc1ccc(C)cc1
1272

* * *

Exercise: state measured mass density for each of the compounds provided.
details: 308.15 K; 101.33 kPa; Liquid
Answers are plain numbers, in kg/m3.

Guide cases for mass density, answers given:
Fill blank: measured mass density of the compound C1CCCCC1 is ____.
764.46

Fill blank: measured mass density of the compound Cc1ccccc1 is ____.
852.86

Endpoint output: mass density of CCc1ccccc1 . Value?
853.89

Fill in the blank: the reported mass density of CCCCO is ____.
798.21

Dear colleague, could you send me mass density for each of the items below? Thanks.
1. CCCCCCCO
2. CCCCCO

811.94
803.41

Hi there! I need mass density for each item below, if you can.
1. c1ccccc1
2. C=C(C)C(=O)OC [methyl methacrylate]
3. Cc1ccc(C)cc1

862.96
925.7
847.88

* * *

conditions: 298.15 K; 101.33 kPa; Liquid
Field: class. Source value: mass density. Ranges: bin 0 (below 800 kg/m3), bin 1 (800 kg/m3 to below 900 kg/m3), bin 2 (900 kg/m3 or more)

For orientation, consider the following solved cases.
Class for CCc1ccccc1 ?
bin 1

Textbook exercise: identify the category of the compound given here, Cc1ccccc1 , according to its measured value.
bin 1

---
Which of the defined bands does the recorded mass density of C1CCCCC1 sit within?
bin 0

Categorize the following entry: Cc1ccc(C)cc1
bin 1

Dear colleague, I would appreciate it if you could identify the bin for C=C(C)C(=O)OC [methyl methacrylate] and reply at your convenience.
bin 2

* * *

conditions: 298.15 K; 101.33 kPa; Liquid
Assign mass density to each entry below.
Give bare numbers, in kg/m3.

Some solved cases for reference:
Requested read-out: mass density. Entry: CCCCO
805.91

Quick one: mass density of CCCCCCCO ?
818.91

Any idea what mass density was measured for CCCCCO ?
810.76

Then this compound:
Recorded mass density for c1ccccc1 , please?
873.58

Hey, just so you know, these numbers are from the NIST ThermoML archive (doi:10.1021/je100652b).
